- testedSystem: human liver microsomal cytochrome P450 2E1 (CYP2E1) (Homo sapiens)
- Sequence (P05181 whole entry): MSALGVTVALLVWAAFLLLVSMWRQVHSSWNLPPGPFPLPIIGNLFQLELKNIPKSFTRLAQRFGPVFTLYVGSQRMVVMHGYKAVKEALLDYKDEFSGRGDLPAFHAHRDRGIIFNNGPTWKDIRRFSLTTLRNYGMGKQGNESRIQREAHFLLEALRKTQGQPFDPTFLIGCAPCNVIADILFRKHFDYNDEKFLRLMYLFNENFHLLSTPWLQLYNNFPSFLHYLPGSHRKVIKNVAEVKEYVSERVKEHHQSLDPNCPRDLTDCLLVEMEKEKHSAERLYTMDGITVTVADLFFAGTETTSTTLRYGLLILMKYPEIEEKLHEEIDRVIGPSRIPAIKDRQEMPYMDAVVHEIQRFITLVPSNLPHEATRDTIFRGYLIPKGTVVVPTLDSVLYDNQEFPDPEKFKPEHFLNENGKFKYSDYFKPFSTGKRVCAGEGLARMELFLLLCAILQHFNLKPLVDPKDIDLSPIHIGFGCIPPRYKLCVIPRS
- protocolNotes: Human liver microsomal CYP2E1, chlorzoxazone 6-hydroxylation;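 note: chlorzoxazone added as substrate, 6-hydroxychlorzoxazone formation quantified by LC/MS/MS after 30 min at 37 °C with NADP+ regenerating system, compared against solvent control without test sample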
- measurementParameters: Table 6; minimum tested concentration (mg/L) × volume of human liver and intestine (3 L)
measureName: Minimum Effective Dose (mg)
Lab book: enter the figure in mg, no units written.

Prompt: Which measured Minimum Effective Dose belongs to Oc1cc(O)c2c(c1)O[C@H](c1cc(O)c(O)c(O)c1)[C@H](O)C2 [(−)-Epigallocatechin] , tested on human liver microsomal cytochrome P450 2E1 (CYP2E1) (Homo sapiens)?
Completion: 17

Prompt: Field entry: C[C@@H]1O[C@@H](Oc2c(-c3ccc(O)c(O)c3)oc3cc(O)cc(O)c3c2=O)[C@H](O)[C@H](O)[C@H]1O
Completion: 24

Prompt: Field entry: O=C(O)c1cc(O)c(O)c(O)c1
Completion: 9
